Sourced from patent US20240400670A1

Let's look at some binders and their measured log10 kon.
# Target entity: T1, human IL-23 (Sino Biological, CT048-H08H) (human, UniProt Q9NPF7 20-189; P29460 23-328)
# T1 construct: also called human IL-23 protein; Human IL-23 p19
# T1 sequence (looked up) 1: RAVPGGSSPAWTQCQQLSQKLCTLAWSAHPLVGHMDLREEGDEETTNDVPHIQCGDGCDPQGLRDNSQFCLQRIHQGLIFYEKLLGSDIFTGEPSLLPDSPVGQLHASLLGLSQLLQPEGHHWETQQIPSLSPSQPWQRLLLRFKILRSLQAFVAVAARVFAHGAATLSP
# T1 sequence (looked up) 2: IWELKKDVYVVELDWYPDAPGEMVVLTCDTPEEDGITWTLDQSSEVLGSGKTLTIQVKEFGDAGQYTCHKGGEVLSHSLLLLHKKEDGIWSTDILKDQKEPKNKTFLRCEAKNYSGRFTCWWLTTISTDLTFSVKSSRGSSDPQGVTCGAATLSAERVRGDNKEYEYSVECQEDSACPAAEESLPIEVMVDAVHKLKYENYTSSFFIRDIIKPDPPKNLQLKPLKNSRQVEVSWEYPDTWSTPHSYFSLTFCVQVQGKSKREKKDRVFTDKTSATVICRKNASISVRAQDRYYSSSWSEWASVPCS
# Measurement notes: SPR (Biacore), Protein A capture of sample, 1:1 model
Value type: log10 kon (log10 of the value in M⁻¹ s⁻¹)

Binder	log10 kon
Hu38-11 (antibody, human IgG1, kappa, L234A L235A, V domains shown, humanized mAb38, IgG1/kappa) VH: EFQLVQSGAEVKKPGASVKVSCKASGYSFTDHNMNWVRQAPGQRLEWMGVINPNYGTTTYNQKFKGRVTITVDQSASTAYMELSSLRSEDTAVYYCARRGFAYWGQGTLVTVSS VL: DIVITQTPLSLPVTPGEPASISCRSSKSLLYKDGKTYLNWFLQRPGQSPQLLIYLMSTRASGVPDRFSGSGSGTDLTLKISRVEAEDVGVYYCQQIAEYPFTFGSGTKLEIKR	5.54
Hu38-10 (antibody, human IgG1, kappa, L234A L235A, V domains shown, humanized mAb38, IgG1/kappa) VH: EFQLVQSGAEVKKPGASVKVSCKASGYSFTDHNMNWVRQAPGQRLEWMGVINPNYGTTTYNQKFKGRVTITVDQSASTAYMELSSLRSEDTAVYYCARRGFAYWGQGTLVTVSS VL: DIVMTQTPLSLPVTPGEPASISCRSSKSLLYKDGKTYLNWFLQKPGQSPQLLIYLMSTRASGVPDRFSGSGSGTDLTLKISRVEAEDVGVYYCQQIAEYPFTFGSGTKLEIKR	5.55
Hu38-14 (antibody, human IgG1, kappa, L234A L235A, V domains shown, humanized mAb38, IgG1/kappa) VH: EFQLVQSGAEVKKPGASVKVSCKASGYSFTDHNMNWVRQAPGQSLEWMGVINPNYGTTTYNQKFKGRVTITVDQSASTAYMELSSLRSEDTAVYYCARRGFAYWGQGTLVTVSS VL: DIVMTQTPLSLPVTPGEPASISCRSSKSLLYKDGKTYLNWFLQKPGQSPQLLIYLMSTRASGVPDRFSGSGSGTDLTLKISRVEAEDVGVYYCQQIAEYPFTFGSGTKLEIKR	5.49
Hu38-6 (antibody, human IgG1, kappa, L234A L235A, V domains shown, humanized mAb38, IgG1/kappa) VH: EVQLVQSGAEVKKPGASVKVSCKASGYSFTDHNMNWVRQAPGQRLEWMGVINPNYGTTTYNQKFKGRVTITVDTSASTAYMELSSLRSEDTAVYYCARRGFAYWGQGTLVTVSS VL: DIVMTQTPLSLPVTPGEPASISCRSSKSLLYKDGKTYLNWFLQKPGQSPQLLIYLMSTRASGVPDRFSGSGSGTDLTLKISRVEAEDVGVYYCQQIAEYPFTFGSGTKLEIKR	5.44
Hu38-4 (antibody, human IgG1, kappa, L234A L235A, V domains shown, humanized mAb38, IgG1/kappa) VH: EFQLVQSGAEVKKPGASVKVSCKASGYTFTDHNMNWVRQAPGQRLEWMGVINPNYGTTTYNQKFKGRVTITVDTSASTAYMELSSLRSEDTAVYYCARRGFAYWGQGTLVTVSS VL: DIVMTQTPLSLPVTPGEPASISCRSSKSLLYKDGKTYLNWFLQKPGQSPQLLIYLMQTRASGVPDRFSGSGSGTDLTLKISRVEAEDVGVYYCQQIAEYPFTFGSGTKLEIKR	5.55
Hu38-8 (antibody, human IgG1, kappa, L234A L235A, V domains shown, humanized mAb38, IgG1/kappa) VH: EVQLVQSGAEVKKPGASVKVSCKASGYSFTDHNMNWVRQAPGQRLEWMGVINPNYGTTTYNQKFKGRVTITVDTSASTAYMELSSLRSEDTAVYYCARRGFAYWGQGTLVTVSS VL: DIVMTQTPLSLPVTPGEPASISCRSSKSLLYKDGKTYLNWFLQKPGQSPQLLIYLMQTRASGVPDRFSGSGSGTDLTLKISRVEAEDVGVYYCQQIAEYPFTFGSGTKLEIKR	5.45
Hu38-12 (antibody, human IgG1, kappa, L234A L235A, V domains shown, humanized mAb38, IgG1/kappa) VH: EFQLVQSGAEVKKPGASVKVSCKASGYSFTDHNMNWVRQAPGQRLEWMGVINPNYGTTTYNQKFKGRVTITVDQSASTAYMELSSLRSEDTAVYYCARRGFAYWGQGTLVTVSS VL: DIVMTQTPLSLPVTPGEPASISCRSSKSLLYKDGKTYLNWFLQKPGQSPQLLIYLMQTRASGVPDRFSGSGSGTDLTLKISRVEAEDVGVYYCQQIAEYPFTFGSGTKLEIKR	5.51
Hu38-16 (antibody, human IgG1, kappa, L234A L235A, V domains shown, humanized mAb38, IgG1/kappa) VH: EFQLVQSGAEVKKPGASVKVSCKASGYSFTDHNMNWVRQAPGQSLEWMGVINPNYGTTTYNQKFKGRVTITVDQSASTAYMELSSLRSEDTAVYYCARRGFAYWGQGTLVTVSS VL: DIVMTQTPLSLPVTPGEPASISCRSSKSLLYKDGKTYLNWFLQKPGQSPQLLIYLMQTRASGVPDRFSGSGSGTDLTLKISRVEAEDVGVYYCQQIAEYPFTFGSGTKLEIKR	5.53
Hu38-7 (antibody, human IgG1, kappa, L234A L235A, V domains shown, humanized mAb38, IgG1/kappa) VH: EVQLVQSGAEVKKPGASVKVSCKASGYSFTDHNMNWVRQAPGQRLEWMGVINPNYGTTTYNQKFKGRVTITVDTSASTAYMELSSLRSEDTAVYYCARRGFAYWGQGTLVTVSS VL: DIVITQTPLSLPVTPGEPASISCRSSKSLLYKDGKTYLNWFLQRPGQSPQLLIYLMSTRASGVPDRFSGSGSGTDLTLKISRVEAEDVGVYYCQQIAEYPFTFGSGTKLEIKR	5.69
Ch29 (antibody, human IgG1, kappa, L234A L235A, V domains shown, chimeric: murine variable regions on hIgG1/hkappa; also called chimeric antibody of mAb29) VH: QVQLKESGPGLVAPSQSLSITCTVSGFSLTSYAISWVRQPPGKGLEWLGVIWTGGGTNYNSGIKSRLTISKDNSKSQVFLNMNSLQTEDTARYYCVREGDYGSYAGAMDYWGQGTSVTVSS VL: DIVLTQSPASLAVSLGQRATISCRASESVDYYGISSMHWFQQKPGQPPKLLIYRASNLESGIPARFSGSGSRTDFTLTINRVETDDVATYYCQQANKDPYTFGGGTKLEIKR	6.61
